assayNotes: NCI Yeast Anticancer Drug Screen. Data for the bub3 strain (AID 167)
settings: S. cerevisiae bub3 mutant strain, at 50.0 µM, active compounds read high
About 79,000 compounds went through this panel and 15% of them were active in at least one assay; those are over-represented in the sample as a whole.
Measured growth inhibition, listed per entry.
Expressed in %, but write only the number.

Consider the following illustrative entries.
INSERT INTO measurements (compound, reportedresult) VALUES
  ('Cc1nc(SCC(=O)Nc2ccc(Cl)cc2)c2sc(=S)n(-c3ccccc3)c2n1', -4.4),
  ('CCC(C)NC(=O)c1ccccc1 (stereo unspecified)', 1.75),
  ('Cc1cc([N+](=O)[O-])ccc1NC(=O)C(=O)C(C(=O)c1ccccc1-c1ccccc1)C1OC(=O)c2ccccc21 (stereo unspecified)', 6.8),
  ('C1=CCSC(Nc2ccccc2)=NC1', 0.75),
  ('CCN1CCC(O)(c2ccc(Oc3ccc(F)cc3)cc2)C(C(=O)c2ccc(Oc3ccc(F)cc3)cc2)C1 (stereo unspecified)', 5.65);

IN: Which growth inhibition is listed for O=S1(=O)OCCC1C(O)(c1ccccc1)c1ccccc1 (stereo unspecified) ?
OUT: 11.2

IN: growth inhibition for CCOC(=O)C(=[N+]=[N-])C(=O)c1ccc(OS(C)(=O)=O)c(OS(C)(=O)=O)c1 ?
OUT: -0.2

IN: Quick one: growth inhibition of COc1cccc(N)c1 ?
OUT: -4.95

IN: What growth inhibition value was documented for this compound, CCN(CC)CCN1C(=O)c2cccc3cc(N)cc(c23)C1=O ?
OUT: -9.6

IN: Consider the compound Nc1ccc(Cn2cnc3c(=O)[nH]cnc32)cc1 and give its measured growth inhibition.
OUT: 6.85

IN: Fill blank: measured growth inhibition of the compound COc1ccccc1N1C(=O)C2C3c4ccccc4C(OC(C)=O)(c4ccccc43)C2C1=O (stereo unspecified) is ____.
OUT: -14.8
